A set of molecules tested on 5-HT3 receptor (Rattus norvegicus, UniProt P35563), with measured pKi:
One number for each entry, as −log10 of the molar value.

| molecule | target | pKi |
| --- | --- | --- |
| CCn1c(=O)n(C(=O)NC2C3CC4CC2CN(C4)C3)c2cc(Cl)ccc21 (centres unmarked) [Example 18] | 5-HT3 receptor (Rattus norvegicus, UniProt P35563) | 5.92 |

Please state, for each entry, its recorded pKi.
1. CC(C)n1c(=O)n(C(=O)NCCC23CCCN2CCC3)c2ccc(Cl)cc21
2. CC(C)n1c(=O)n(C(=O)NC2C3CC4CC2CN(C4)C3)c2cc(Cl)ccc21 (centres unmarked)
3. CCn1c(=O)n(C(=O)NC2C3CC4CC2CN(C4)C3)c2ccccc21 (centres unmarked) [Example 20]
4. CCn1c(=O)n(C(=O)NC2C3CC4CC2CN(C4)C3)c2ccc(Cl)cc21 (centres unmarked) [Example 22]

[5.55, 5.92, 7.72, 6.44]

* * *

- Tested on: 5-HT3
- protocol.details: Bezold-Jarisch Reflex (inhibition of 5-HT-induced bradycardia in anesthetized mice)
- Type: in vivo
- conditions.used: i.p., 30 min before 5-HT 0.25 mg/kg i.v.; >50 percent reduction in bradycardic response vs vehicle considered significant; pentobarbital anesthetized mice
Outcome: class 1 for Minimum Effective Dose (MED) of at least 2 mg/kg; class 0 for anything lower.

Does Minimum Effective Dose (MED) meet or surpass 2 mg/kg for CN1C2CCCC1CC(NC(=O)c1nn(C)c3ccccc13)C2 (stereo not shown) ?
class 0

Does Minimum Effective Dose (MED) meet or surpass 2 mg/kg for CN1[C@@H]2C[C@@H](OC(=O)[C@H](CO)c3ccccc3)C[C@H]1[C@@H]1O[C@@H]12 ?
class 1

* * *

Assign Ki to each entry below.
- target: UniProt:P35563
- Sequence (P35563 24-483): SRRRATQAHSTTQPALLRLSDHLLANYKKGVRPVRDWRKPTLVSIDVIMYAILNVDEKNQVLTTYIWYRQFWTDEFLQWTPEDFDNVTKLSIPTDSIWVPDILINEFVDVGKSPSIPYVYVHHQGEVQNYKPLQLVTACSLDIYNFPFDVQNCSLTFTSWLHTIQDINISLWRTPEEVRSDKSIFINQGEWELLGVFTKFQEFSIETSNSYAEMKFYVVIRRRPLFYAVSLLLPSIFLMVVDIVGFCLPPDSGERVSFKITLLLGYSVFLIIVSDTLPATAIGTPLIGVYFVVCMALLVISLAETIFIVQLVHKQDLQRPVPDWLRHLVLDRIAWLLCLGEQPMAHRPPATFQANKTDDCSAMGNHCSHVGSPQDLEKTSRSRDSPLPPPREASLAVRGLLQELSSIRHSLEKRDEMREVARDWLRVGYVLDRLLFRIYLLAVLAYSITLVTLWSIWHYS
Answers are plain numbers, in nM.

Field: example entries. Status: answers known.
| molecule | Ki / nM |
| --- | --- |
| CCn1c(=O)n(C(=O)NC2C3CC4CC2CN(C4)C3)c2ccccc21 (stereo not drawn) [Example 15] | 92 |
| CC(C)n1c(=O)n(C(=O)N[C@@H]2[C@@H]3C[C@H]4CN(C3)C[C@H]42)c2ccccc21 (relative stereo) | 2 |
| CC(C)n1c(=O)n(C(=O)NCC23CCCN2CCC3)c2ccccc21 | 36 |
| CC(C)n1c(=O)n(C(=O)NCCC23CCCN2CCC3)c2ccccc21 | 120 |
| CCn1c(=O)n(C(=O)NC2C3CC4CC2CN(C4)C3)c2cc(Cl)ccc21 (stereo not drawn) [Example 21] | 55 |

Consider now this further molecule.
Need Ki of CCn1c(=O)n(C(=O)NC2C3CC4CC2CN(C4)C3)c2ccc(Cl)cc21 (stereo not drawn) [Example 19] , thanks.
1200
